test: protein stability index of a GFP-peptide fusion (GPS, HEK-293T) (PSI 1-6); higher = more stable; conditions: treatment: MLN4924 1 uM, 8 h; c terminus: a fixed tail appended;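 also: 24-mer peptide tiles fused after GFP, lentivirally expressed, FACS-sorted into six equal bins by GFP/DsRed ratio, decoded by Illumina sequencing, PSI is the read-weighted mean bin number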
Given measured protein stability index, output 1 if it is greater than or equal to 4 and -1 if not.

{"Polymer sequence": "ALGSRGWEPFDWGRLLEALCREEP [FANCE]", "Category label": -1}
{"Polymer sequence": "LSQPTTNLVAGCLQLNARSFMMGQ [NEUROD6]", "Category label": -1}
{"Polymer sequence": "ELVYADDYIMDEDQSKLAGLLDLN [ESRRG]", "Category label": -1}

Decide: protein stability index of PGDPKWLDVIERDLHRQFPFHEMF [TBC1D10A] >= 4?
-1

// inclusive: protein stability index at least 4? input: VFCDMETDGGGWLVFQRRMDGQTD [TNXB]
-1

Kindly determine if protein stability index recorded for GTATRQNNWPPLPSFCPVQPCFFQ [SCAMP3] is above or exactly 4.
-1

Check this sequence for protein stability index at or above 4: GRGAVVPGAGLRRPTYTPPSIMPQ [ZBTB22]
-1
